Cited source: ChEMBL document CHEMBL1201862

- System: NCI-H23
- assay-explanation: NCI tumour cell line growth inhibition, 48 h
Activity calls are given as the source filed them. Cut-off read from the data, not from the text of the source: active = GI50 up to about 1.1 µM and inactive = higher.
measurement-name: GI50

// below: answered molecules
molecule | GI50
CCCCCCCCCCCCCCCCP(=O)(O)OP(=O)(O)OCC1OC(n2cnc3c(N)ncnc32)C(O)C1O (configuration not stated) | 26.8 µM (inactive)
C[C@@H]1CC[C@@]2(NC1)O[C@H]1C[C@H]3[C@@H]4CC[C@H]5C[C@@H](O)CC[C@]5(C)[C@H]4CC[C@]3(C)[C@H]1[C@@H]2C | 77.3 µM (inactive)
CN(C)c1ccc(/C=C/c2cc[n+](C)c3ccccc23)cc1 | 2.11 µM (inactive)
COc1ccc2c(c1)nc1n2C(c2c(F)cccc2F)SC1 (configuration not stated) | 29 µM (inactive)
COC(=O)c1cc(C(=O)OC)c(CC(=O)C(=O)NC2C3CC4CC(C3)CC2C4)nc1CC(=O)C(=O)NC1C2CC3CC(C2)CC1C3 (configuration not stated) | > 100 µM (inactive)
O=C1NC2(CCCCC2)N=C2C(Cl)CCCC12Cl (configuration not stated) | > 100 µM (inactive)
COC(=O)CCSC(=O)Nc1ccc(/N=N/c2ccccc2)cc1 | 34.2 µM (inactive)
Oc1ccc2ccccc2c1/N=N/c1cccc2ccccc12 | > 100 µM (inactive)

Form field: reported GI50 of "CCSC1=C(C#N)C2(CCCCC2)C2=C(O)CC(C)(C)CC2=N1"
32.4 µM (inactive)

Also, "O=C(COc1ccc(Cl)c(Cl)c1)N(Cc1ccccc1)Cc1ccc[n+](Cc2ccc(Cl)cc2S(=O)(=O)F)c1" please.
41.3 µM (inactive)

Also, "Cc1n[nH]c(=O)n1N1C(=O)c2ccccc2C1=O" please.
> 100 µM (inactive)

Also, O=CN1CCN(CC(O)CN2CCCCC2)CC1 (configuration not stated) please.
> 100 µM (inactive)

Also, NC1=NN(c2ccccc2)C(=O)C1C(=O)C(=O)Nc1nccs1 (configuration not stated) please.
> 100 µM (inactive)

Also, CCOC(=O)CNC(=O)C(CSC(=O)N(O)c1ccc(Cl)cc1)NC(=O)CCC(N)C(=O)OCC (configuration not stated) please.
> 50 µM (inactive)

Also, "CC(C)Oc1cccc(N2C(NCCc3c[nH]c4ccccc34)=Nc3ccncc3S2(=O)=O)c1" please.
33.1 µM (inactive)

----------
- Tested on: EKVX
- assay-explanation: NCI tumour cell line growth inhibition, 48 h
The source made the active and inactive calls. Cut-off read from the data, not from the text of the source: active = GI50 up to about 1.1 µM and inactive = higher.
measurement-name: GI50

// below: answered molecules
molecule | GI50
Cc1cc(C)c(C2=NO[C@@H]3C(=O)N(c4ccc(Cc5ccc(N6C(=O)[C@H]7C(c8c(C)cc(C)cc8C)=NO[C@H]7C6=O)cc5)cc4)C(=O)[C@H]23)c(C)c1 | > 100 µM (inactive)
N#C/C(=C\c1ccccc1Br)C(=O)c1ccccc1 | > 100 µM (inactive)
C=C1C[C@@H]2C[C@@H](C)CC(O)[C@]2(CCCN)C1O (some centres undefined) | > 100 µM (inactive)

Now consider a different molecule.
Form field: reported GI50 of COc1ccc(OC)c(NC(=O)C(=O)C(C(C)=O)c2nc3ccc(Cl)cc3nc2O)c1 (centres undefined)
> 50 µM (inactive)

----------
Here the recorded GI50 is given for each entry.
- Tested on: SK-MEL-2
- assay-explanation: NCI tumour cell line growth inhibition, 48 h
The source made the active and inactive calls. No stated cut-off is given here; in the data, active = GI50 up to about 1.1 µM and inactive = higher.

// below: answered compounds
compound | GI50
O=[N+]([O-])c1ccc(CSc2nn(Cc3ccc([N+](=O)[O-])cc3)cc3ncnc2-3)cc1 | 19.7 µM (inactive)
COC1(CCO)CC=CCC1(CCO)OC (stereo not given) | > 100 µM (inactive)
CC(C)c1ccccc1[S+]([O-])c1ccccc1C(C)(C)O (stereo not given) | 67.6 µM (inactive)
CC1(C)CCCCCCCCCC(C)(CCCCCCCCCCCCO)C1=O (stereo not given) | 17.1 µM (inactive)
O=C1/C(=C/c2ccco2)N=C(c2ccccc2)N1c1ccc(S(=O)(=O)Nc2nccs2)cc1 | > 100 µM (inactive)

Now consider a different compound.
Reported GI50 for SK-MEL-2, given CC(=O)OCCC1c2ccccc2-n2nc(-c3ccccc3)c(O)c21 (stereo not given) ?
27.1 µM (inactive)
